Values were extracted from patent US12398107B2.

# Test C disease control rating (wheat powdery mildew) per entry
# Test system: Blumeria graminis f. sp. tritici
# Procedure details: Test C: wheat powdery mildew, preventive spray on wheat seedlings
# Assay type: in vivo
# Condition info: 50 ppm, rated after 8 days, 100 = 100% disease control, 0 = no control

The examples below pair each entry with its known result.
Compound	Observed result
Cc1nn(C)c(Nc2c(F)cc(F)cc2[N+](=O)[O-])c1-c1ccc(C#N)cc1Cl [Compound 120]	89%
CCc1nn(C)c(Nc2c(F)cccc2[N+](=O)[O-])c1-c1c(F)cc(Cl)cc1F [Compound 170]	99%
Cc1nn(C)c(Nc2c(F)cc(F)cc2[N+](=O)[O-])c1-c1ccc(F)cc1Cl [Compound 109]	100%
COc1ccc(-c2c(C)nn(C)c2Nc2ccc(Cl)cc2[N+](=O)[O-])c(Cl)c1 [Compound 74]	81%
COc1cc(F)c(Nc2c(-c3c(F)cccc3F)c(C)nn2C)c([N+](=O)[O-])c1 [Compound 97]	100%

IN: Please give the measured Test C disease control rating (wheat powdery mildew) for this compound: CCc1nn(C)c(Nc2ccc(OC)cc2[N+](=O)[O-])c1-c1ccc(F)cc1F [Compound 45]
OUT: 95%

IN: Thanks! And COc1ccc(-c2c(C)nn(C)c2Nc2c(Cl)cccc2[N+](=O)[O-])c(C)c1 [Compound 35] ?
OUT: 0%

IN: Thanks! And Cc1nn(C)c(Nc2ccccc2[N+](=O)[O-])c1-c1ccc(F)cc1Cl [Compound 126] ?
OUT: 96%

IN: Thanks! And Cc1nn(C)c(Nc2c(Cl)cccc2[N+](=O)[O-])c1-c1ccc(F)cc1Cl [Compound 108] ?
OUT: 97%
